# Test system: Fibroblast
# experiment description: Incucyte cell viability with human fibroblast; also: filed as whole numbers so only -1 and 0 and 1 occur
# Assay type: toxicity, cell-based
# settings: 0 h, 10 µM, compound concentration 10 uM, replicate number 1, timepoint 0 hours
Measured Growth Rate, listed per entry.
Number only, please.

Recorded Growth Rate, per entry:
O=C(NCc1ncc(C(F)(F)F)cc1Cl)c1ccc2c(c1)C1(CCS(=O)(=O)CC1)[C@@H](C1CC1)N2S(=O)(=O)c1ccc(F)cc1 [BAY-786] | 0
Cc1ccccc1C(=O)Nc1ccc(C(=O)N2CCCC(O)c3cc(Cl)ccc32)c(C)c1 (centres undefined) [TOLVAPTAN] | 1
CC(C)CC(=O)Nc1[nH]nc2c1CN(C(=O)C1CCN(C)CC1)C2(C)C [PHA-793887] | 0

Now consider the entry below.
Input: Provide only the value of recorded Growth Rate for "CN1C[C@H](Nc2cnn(C)c(=O)c2Br)C[C@H](c2ccccc2)C1"
Output: 0
